conditions: in acetonitrile, 293.1 K
MEASURED_PARAMETER: solubility (mole fraction)

[1] C=CC1=C(C(=O)O)N2C(=O)[C@@H](NC(=O)/C(=N\OCC(=O)O)c3csc(N)n3)[C@H]2SC1.O.O.O
[2] Cc1c(O)c(=O)ccn1C
Request: Hey, which is lower on measured solubility (mole fraction), 1 or 2 ? Field: selected label. Fill in the label of the entry you choose.
Response: 1
